tested on: Enterococcus faecalis; experiment: microbe, parasite or virus in culture; type: functional; details: ATCC 29212
Description: Antibacterial activity against Enterococcus faecalis ATCC 29212 after 24 to 48 hr by CLSI broth microdilution method
compounds and their reported MIC
value-type: MIC

O=C(N[C@H](CO)[C@H](O)c1ccc([N+](=O)[O-])cc1)C(Cl)Cl | 12.5 µg/mL
COc1cc(Cc2cnc(N)nc2N)cc(OC)c1OC.O=C(O)/C=C\C(=O)O [TRIMETHOPRIM MALEIC ACID SALT] | 50 µg/mL
COc1cc(Cc2cnc(N)nc2N)cc(OC)c1OC | 50 µg/mL
COc1cc(Cc2cnc(N)nc2N)cc(OC)c1OC.O.O.O=C(O)C(=O)O [TRIMETHOPRIM OXALIC ACID SALT DIHYDRATE] | 50 µg/mL

###

test system: Klebsiella pneumoniae; assay: microbe, parasite or virus in culture; type: functional; details: ATCC 700603
Description: Antibacterial activity against Klebsiella pneumoniae ATCC 700603 after 24 to 48 hr by CLSI broth microdilution method
value-type: MIC (µg/mL)

O=C(N[C@H](CO)[C@H](O)c1ccc([N+](=O)[O-])cc1)C(Cl)Cl | 12.5
COc1cc(Cc2cnc(N)nc2N)cc(OC)c1OC.O=C(O)/C=C\C(=O)O [TRIMETHOPRIM MALEIC ACID SALT] | 50
COc1cc(Cc2cnc(N)nc2N)cc(OC)c1OC | 50
COc1cc(Cc2cnc(N)nc2N)cc(OC)c1OC.O.O.O=C(O)C(=O)O [TRIMETHOPRIM OXALIC ACID SALT DIHYDRATE] | 50
